- System: Escherichia coli
- test: Antibacterial activity against Escherichia coli by broth microdilution method
- Assay type: functional
For each entry below, report its MIC value.
Supply the numeric figure in µg/mL, leaving out any unit text.

The observed MIC for `COc1c(O)c(Cl)c2c(c1O)C(=O)O[C@H](C)C2` when tested with Escherichia coli stands at 2

The observed MIC for `COc1c(O)cc2c(c1O)C(=O)O[C@H](C)[C@@H]2Oc1c(Cl)c2c(c(O)c1OC)C(=O)O[C@H](C)[C@@H]2O` when tested with Escherichia coli stands at 8

The observed MIC for `COc1c(O)c(Cl)c2c(c1O)C(=O)O[C@H](C)[C@@H]2O` when tested with Escherichia coli stands at 64

The observed MIC for `COc1c(O)cc2c(c1O)C(=O)O[C@H](C)[C@@H]2Oc1c(Cl)c2c(c(O)c1OC)C(=O)O[C@H](C)C2` when tested with Escherichia coli stands at 64

The observed MIC for `C[C@H]1OC(=O)c2c(O)cc(O)cc2[C@H]1Cl` when tested with Escherichia coli stands at 32

The observed MIC for `COc1c(O)cc2c(c1O)C(=O)O[C@H](C)[C@H]2Oc1c(Cl)c2c(c(O)c1OC)C(=O)O[C@H](C)C2` when tested with Escherichia coli stands at 32

The observed MIC for `COc1c(O)cc2c(c1O)C(=O)O[C@H](C)[C@H]2OC` when tested with Escherichia coli stands at 16

The observed MIC for `COc1c(O)cc2c(c1O)C(=O)O[C@H](C)[C@H]2Oc1cc2c(c(O)c1OC)C(=O)O[C@H](C)C2` when tested with Escherichia coli stands at 1

The observed MIC for `COc1c(O)cc2c(c1O)C(=O)O[C@H](C)[C@@H]2Oc1c(Cl)c2c(c(O)c1OC)C(=O)O[C@H](C)[C@H]2O` when tested with Escherichia coli stands at 32

The observed MIC for `COc1c(O)c(Cl)c2c(c1O)C(=O)O[C@H](C)[C@H]2OC(C)=O` when tested with Escherichia coli stands at 32

The observed MIC for `COc1c(O)cc2c(c1O)C(=O)O[C@H](C)[C@H]2Oc1c(Cl)c2c(c(O)c1OC)C(=O)O[C@H](C)[C@H]2O` when tested with Escherichia coli stands at 32

The observed MIC for `COc1c(O)cc2c(c1O)C(=O)O[C@H](C)[C@@H]2O` when tested with Escherichia coli stands at 8

The observed MIC for `COc1c(O)cc2cc(C)oc(=O)c2c1O` when tested with Escherichia coli stands at 16

The observed MIC for `COc1c(O)c(Cl)c2c(c1O)C(=O)O[C@H](C)[C@H]2O` when tested with Escherichia coli stands at 32

The observed MIC for `COc1c(O)cc2c(c1O)C(=O)O[C@H](C)[C@@H]2OC` when tested with Escherichia coli stands at 16

The observed MIC for `COc1c(O)cc2c(c1O)C(=O)O[C@H](C)[C@H]2Oc1c(Cl)c2c(c(O)c1OC)C(=O)O[C@H](C)[C@@H]2O` when tested with Escherichia coli stands at 4

The observed MIC for `C[C@@H]1Cc2cc(O)c(O)c(O)c2C(=O)O1` when tested with Escherichia coli stands at 64

The observed MIC for `COc1c(O)cc2c(c1O)C(=O)O[C@H](C)[C@H]2Oc1cc2c(c(O)c1OC)C(=O)O[C@H](C)[C@@H]2O` when tested with Escherichia coli stands at 64

The observed MIC for `COc1c(O)cc2c(c1O)C(=O)O[C@H](C)[C@@H]2Oc1cc2c(c(O)c1OC)C(=O)O[C@H](C)C2` when tested with Escherichia coli stands at 1
